meta.source: patent US20240180966A1

target: T1, NRAS wild-type (Q61) peptide on HLA-A*01:01 (human); test: cytokine release
T1 peptide: ILDTAGQEEY

Binder	binding result
N135.1 (TCR) alpha TRAV19 TRAJ39 CDR3: CALSESHNNAGNMLTF beta TRBV6-1 TRBJ1-1 CDR3: CAASQNTEAFF	no recognition
N17.2 (TCR) alpha TRAV5 TRAJ9 CDR3: CAESSGGGFKTIF beta TRBV6-6 TRBJ2-7 CDR3: CASSTPGPSAYEQYF	no recognition
NH2 (TCR) alpha TRAV19 TRAJ39 CDR3: CALSETINNAGNMLTF beta TRBV6-1 TRBJ1-1 CDR3: CAASQNTEAFF	no recognition
N17.3.2 (TCR) alpha TRAV19 TRAJ17 CDR3: CALSESGDAAGNKLTF beta TRBV6-1 TRBJ1-1 CDR3: CAEGENTEAFF	no recognition
